Where these numbers come from: patent US9661850B2

test system: Diabrotica balteata (Corn Rootworm); test: Diabrotica balteata seed treatment test, larval mortality; format: in vivo; settings: treated corn seeds, 1 mg/seed, L3 larvae, 6 days incubation
OBSERVABLE: % Larval mortality (%)
# number only, unit % dropped from output

Some solved cases for reference:
[[record]]
molecule = "CCN1OC[C@@H](NC(=O)c2ccc(C3=NO[C@@](c4cc(Cl)cc(Cl)c4)(C(F)(F)F)C3)cc2C)C1=O [Compound A17]"
observable = "% Larval mortality"
val = 83

[[record]]
molecule = "Cc1cc(C2=NO[C@@](c3cc(Cl)c(F)c(Cl)c3)(C(F)(F)F)C2)ccc1C(=O)N[C@@H]1CON(CC(F)(F)F)C1=O [Compound A20]"
observable = "% Larval mortality"
val = 100


Kindly review the next molecule as well.
For the molecule Cc1cc(C2=NO[C@@](c3cc(Cl)c(Cl)c(Cl)c3)(C(F)(F)F)C2)ccc1C(=O)N[C@@H]1CON(CC(F)(F)F)C1=O [Compound A21] , what % Larval mortality is on record? 100
